# procedure_summary: clinical
# measurement_conditions: human, in vivo, Tmax, 400 mg per day, PK Day 3
assay_metric: Tmax (h)

INSERT INTO measurements (compound, reported) VALUES
  ('COc1ccc2c(O[C@H]3CCN4C(=O)N(C)CCCC/C=C\[C@@H]5C[C@@]5(C(=O)NS(=O)(=O)C5(C)CC5)NC(=O)[C@@H]4C3)cc(-c3nc(C(F)(F)F)cs3)nc2c1C [Compound 52]', 3.5);

* * *

# procedure_summary: in vitro
# Format: cell-based
# measurement_conditions: fresh rat hepatocytes, 48 hrs, intracellular ATP
assay_metric: CC50

INSERT INTO assay_data (compound_smiles, assay_metric, reported) VALUES
  ('COc1ccc2c(O[C@H]3CCN4C(=O)N(C)CCCC/C=C\[C@@H]5C[C@@]5(C(=O)NS(=O)(=O)C5(C)CC5)NC(=O)[C@@H]4C3)cc(-c3nc(C(F)(F)F)cs3)nc2c1C', 'CC50', '> 10 µM');

* * *

# procedure_summary: clinical
# measurement_conditions: human, in vivo, 200 mg, Tmax, single dose 200 mg, HCV patients, N = 2
assay_metric: Tmax (h)

INSERT INTO results (compound_smiles, reported) VALUES
  ('COc1ccc2c(O[C@H]3CCN4C(=O)N(C)CCCC/C=C\[C@@H]5C[C@@]5(C(=O)NS(=O)(=O)C5(C)CC5)NC(=O)[C@@H]4C3)cc(-c3nc(C(F)(F)F)cs3)nc2c1C', 3.5);

* * *

# procedure_summary: in vivo
# measurement_conditions: male, cynomolgus monkey, po, 2 mg/kg
assay_metric: Tmax (h)

INSERT INTO assay_data (compound, units, reported) VALUES
  ('COc1ccc2c(O[C@H]3CCN4C(=O)N(C)CCCC/C=C\[C@@H]5C[C@@]5(C(=O)NS(=O)(=O)C5(C)CC5)NC(=O)[C@@H]4C3)cc(-c3nc(C(F)(F)F)cs3)nc2c1C [Compound 52]', 'h', 1);

* * *

# procedure_summary: MTS Cytotoxicity Assay in HPC cells
# Type: cell-based
# measurement_conditions: human; HPC cells (2a virus line)
assay_metric: CC50 at 5 days (µM)

INSERT INTO results (compound, reported) VALUES
  ('COc1ccc2c(O[C@H]3CCN4C(=O)N(C)CCCC/C=C\[C@@H]5C[C@@]5(C(=O)NS(=O)(=O)C5(C)CC5)NC(=O)[C@@H]4C3)cc(-c3nc(C(F)(F)F)cs3)nc2c1C [Compound 52]', 11.3);

* * *

# Tested on: 1a replicon
# procedure_summary: HCV replicon luciferase assay, genotype 1a
# Format: cell-based
# measurement_conditions: Hepatitis C virus, 72 h, three days, luciferase assay
pEC50: −log10 of the molar value.
assay_metric: pEC50

INSERT INTO measurements (compound, test_target, assay_metric, reported) VALUES
  ('COc1ccc2c(O[C@H]3CCN4C(=O)N(C)CCCC/C=C\[C@@H]5C[C@@]5(C(=O)NS(=O)(=O)C5(C)CC5)NC(=O)[C@@H]4C3)cc(-c3nc(C(F)(F)F)cs3)nc2c1C [Compound 52]', '1a replicon', 'pEC50', 8.47);

* * *

# procedure_summary: Cytotoxicity in parallel, colorimetric proliferation assay, 1b replicon cells
# Assay type: cell-based
# measurement_conditions: human, replicon cells (genotype 1b)
assay_metric: CC50 at 5 days (µM)

INSERT INTO assay_data (compound_smiles, assay_metric, units, reported) VALUES
  ('COc1ccc2c(O[C@H]3CCN4C(=O)N(C)CCCC/C=C\[C@@H]5C[C@@]5(C(=O)NS(=O)(=O)C5(C)CC5)NC(=O)[C@@H]4C3)cc(-c3nc(C(F)(F)F)cs3)nc2c1C', 'CC50 at 5 days', 'µM', 25.2);

* * *

# procedure_summary: clinical
# measurement_conditions: human, in vivo, T1/2, 400 mg per day, PK Day 3
assay_metric: half-life (h)

INSERT INTO results (compound, assay_metric, units, reported) VALUES
  ('COc1ccc2c(O[C@H]3CCN4C(=O)N(C)CCCC/C=C\[C@@H]5C[C@@]5(C(=O)NS(=O)(=O)C5(C)CC5)NC(=O)[C@@H]4C3)cc(-c3nc(C(F)(F)F)cs3)nc2c1C [Compound 52]', 'half-life', 'h', 31);

* * *

# procedure_summary: in vivo
# measurement_conditions: male, CD-1, mouse, in vivo, po, 2 mg/kg, Mean concentration ratio Heart/Plasma, 2 hr, single 2 mg/kg oral dose
assay_metric: Kp

INSERT INTO measurements (compound_smiles, reported) VALUES
  ('COc1ccc2c(O[C@H]3CCN4C(=O)N(C)CCCC/C=C\[C@@H]5C[C@@]5(C(=O)NS(=O)(=O)C5(C)CC5)NC(=O)[C@@H]4C3)cc(-c3nc(C(F)(F)F)cs3)nc2c1C', 0.79);

* * *

# procedure_summary: in vitro
# Format: cell-based
# measurement_conditions: fresh monkey hepatocytes, 48 hrs, intracellular ATP
assay_metric: CC50

INSERT INTO assay_data (compound, assay_metric, reported) VALUES
  ('COc1ccc2c(O[C@H]3CCN4C(=O)N(C)CCCC/C=C\[C@@H]5C[C@@]5(C(=O)NS(=O)(=O)C5(C)CC5)NC(=O)[C@@H]4C3)cc(-c3nc(C(F)(F)F)cs3)nc2c1C [Compound 52]', 'CC50', '> 10 µM');

* * *

# procedure_summary: Cytotoxicity in parallel, colorimetric proliferation assay, 1a replicon cells
# Type: cell-based
# measurement_conditions: human, replicon cells (genotype 1a)
assay_metric: CC50 at 5 days

INSERT INTO assay_data (compound_smiles, reported) VALUES
  ('COc1ccc2c(O[C@H]3CCN4C(=O)N(C)CCCC/C=C\[C@@H]5C[C@@]5(C(=O)NS(=O)(=O)C5(C)CC5)NC(=O)[C@@H]4C3)cc(-c3nc(C(F)(F)F)cs3)nc2c1C', '> 77 µM');

* * *

# procedure_summary: in vivo
# measurement_conditions: male, CD-1, mouse, in vivo, po, 2 mg/kg, Mean concentration ratio Liver/Plasma, 24 hr, single 2 mg/kg oral dose
assay_metric: Kp

INSERT INTO assay_data (compound_smiles, assay_metric, reported) VALUES
  ('COc1ccc2c(O[C@H]3CCN4C(=O)N(C)CCCC/C=C\[C@@H]5C[C@@]5(C(=O)NS(=O)(=O)C5(C)CC5)NC(=O)[C@@H]4C3)cc(-c3nc(C(F)(F)F)cs3)nc2c1C', 'Kp', 39);

* * *

# test_target: HCV NS3-4A Protease Genotype 4a (Hepatitis C virus genotype 4a)
# Construct: recombinant HCV NS3-4A proteases
# procedure_summary: HCV protease assay, recombinant NS3-4A genotype 4a
# measurement_conditions: mean ± SD, 3 experiments
# Protocol: The compounds were tested at a variety of concentrations in assay buffer containing a final DMSO concentration of 5%. Reactions were allowed to proceed for 60 min at room temperature and fluorescence measurements were recorded with a Tecan Infinity Spectrofluorimeter. The IC50 values were determined from the percent inhibition versus concentration data using a sigmoidal non-linear regression analysis based on four parameters with Tecan Magellan software. […]
assay_metric: IC50 (pM)

INSERT INTO assay_data (compound_smiles, reported) VALUES
  ('COc1ccc2c(O[C@H]3CCN4C(=O)N(C)CCCC/C=C\[C@@H]5C[C@@]5(C(=O)NS(=O)(=O)C5(C)CC5)NC(=O)[C@@H]4C3)cc(-c3nc(C(F)(F)F)cs3)nc2c1C', 810);

* * *

# procedure_summary: clinical
# measurement_conditions: human, in vivo, 400 mg, Cmax, single dose 400 mg, human volunteers
assay_metric: Cmax (ng/mL)

INSERT INTO measurements (compound_smiles, reported) VALUES
  ('COc1ccc2c(O[C@H]3CCN4C(=O)N(C)CCCC/C=C\[C@@H]5C[C@@]5(C(=O)NS(=O)(=O)C5(C)CC5)NC(=O)[C@@H]4C3)cc(-c3nc(C(F)(F)F)cs3)nc2c1C', 1120);

* * *

# procedure_summary: in vivo
# measurement_conditions: male, CD-1, mouse, in vivo, iv, 2 mg/kg
assay_metric: clearance (mL/min/kg)

INSERT INTO measurements (compound_smiles, assay_metric, units, reported) VALUES
  ('COc1ccc2c(O[C@H]3CCN4C(=O)N(C)CCCC/C=C\[C@@H]5C[C@@]5(C(=O)NS(=O)(=O)C5(C)CC5)NC(=O)[C@@H]4C3)cc(-c3nc(C(F)(F)F)cs3)nc2c1C', 'clearance', 'mL/min/kg', 8);

* * *

# procedure_summary: clinical
# measurement_conditions: human, in vivo, 200 mg, Tmax, single dose 200 mg, human volunteers
assay_metric: Tmax (h)

INSERT INTO results (compound_smiles, reported) VALUES
  ('COc1ccc2c(O[C@H]3CCN4C(=O)N(C)CCCC/C=C\[C@@H]5C[C@@]5(C(=O)NS(=O)(=O)C5(C)CC5)NC(=O)[C@@H]4C3)cc(-c3nc(C(F)(F)F)cs3)nc2c1C', 3);
